Test system: Staphylococcus aureus ATCC 25923
Type: cell-based
Test conditions: ATCC 25923
Peptide text beside a SMILES is read from it. * marks the point of attachment. Acm = CC(=O)NC*
Outcome measure: MIC S. aureus (µg/mL)
Answers are plain numbers, in µg/mL.

stdin: Could you tell me which MIC S. aureus is on file for CSCC[C@H](NC(=O)[C@H](CCCNC(=N)N)NC(=O)[C@H](Cc1c[nH]c2ccccc12)NC(=O)[C@H](CCC(N)=O)NC(=O)[C@H](Cc1c[nH]c2ccccc12)NC(=O)[C@H](CCCNC(=N)N)NC(=O)[C@H](CCCNC(=N)N)NC(=O)[C@H](CSCNC(C)=O)NC(=O)[C@H](CCCCN)NC(=O)[C@@H](N)Cc1ccccc1)C(=O)N[C@@H](CCCCN)C(=O)N[C@@H](CCCCN)C(=O)N[C@@H](CC(C)C)C(=O)N[C@@H](C)C(=O)N[C@@H](C)C(=O)O [LFB A14] (H-FKC(Acm)RRWQWRMKKLAA-OH) ?
stdout: 160
